Reported R0 values follow for various binders
testedOn: T1, rat MuSK (rat, UniProt Q62838 22-494, limits assumed)
T1 construct: Coated on Biacore chip (200RU) or ELISA plate
T1 sequence (looked up): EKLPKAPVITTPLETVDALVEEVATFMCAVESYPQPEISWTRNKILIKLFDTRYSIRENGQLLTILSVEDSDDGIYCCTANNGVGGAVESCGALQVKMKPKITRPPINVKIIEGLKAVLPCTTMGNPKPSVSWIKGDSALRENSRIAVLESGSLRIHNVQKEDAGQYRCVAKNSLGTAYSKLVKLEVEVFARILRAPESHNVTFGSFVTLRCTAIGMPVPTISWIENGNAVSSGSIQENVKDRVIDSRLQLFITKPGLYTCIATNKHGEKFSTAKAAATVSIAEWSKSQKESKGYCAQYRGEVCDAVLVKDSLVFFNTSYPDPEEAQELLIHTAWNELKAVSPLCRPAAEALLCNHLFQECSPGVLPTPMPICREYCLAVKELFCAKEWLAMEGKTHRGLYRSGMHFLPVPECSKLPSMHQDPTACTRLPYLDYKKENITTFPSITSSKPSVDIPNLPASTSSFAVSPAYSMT
protocolDescription: Biacore, MuSK on chip (200RU), 66.7 nM mAb, dissociation pH 7.4
measuredParameter: R0

INSERT INTO assay_data (binder, value) VALUES
  ('3B2g2m1 (antibody, human IgG1, V domains shown, human IgG1-LALA backbone; produced in HEK293 cells; also called MuSK agonist antibody 3B2g2m1; MuSK-mAb 3B2g2m1) VH: EVQLLESGGGLVQPGGSLRLSCAASGFTFSDYGMSWVRQAPGKGLEWVSAIPWSGGSTYYKESVKGRFTISRDNSKNTLYLQMNSLRAEDTAVYYCAKRSGRIAFGALDAWGQGTLVTVSS VL: QTVVTQEPSFSVSPGGTVTLTCGLSSGSVTSSNYPDWYQQTPGQAPRTLIYSTDSRHSGVPDRFSGSILGNKAALTITGAQADDESDYYCGLYSYSGSKNYVFGGGTKLTVL', '160 RU'),
  ('3B2g2m2 (antibody, human IgG1, V domains shown, human IgG1-LALA backbone; produced in HEK293 cells) VH: EVQLLESGGGLVQPGGSLRLSCAASGFTFSDYGMSWVRQAPGKGLEWVSAIPGSGGSTYYKESVKGRFTISRDNSKNTLYLQMNSLRAEDTAVYYCAKRSGRIAFGALDAWGQGTLVTVSS VL: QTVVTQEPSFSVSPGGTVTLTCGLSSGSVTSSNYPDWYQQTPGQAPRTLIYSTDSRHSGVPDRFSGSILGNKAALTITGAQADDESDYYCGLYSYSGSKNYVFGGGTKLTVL', '130 RU'),
  ('3B2g1m1 (antibody, human IgG1, V domains shown, human IgG1-LALA backbone; produced in HEK293 cells) VH: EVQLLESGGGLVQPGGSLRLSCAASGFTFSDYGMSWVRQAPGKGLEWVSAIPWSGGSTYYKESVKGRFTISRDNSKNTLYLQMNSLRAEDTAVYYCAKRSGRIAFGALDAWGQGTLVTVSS VL: QTVVTQEPSFSVSPGGTVTLTCGLSSGSVTSSNYPDWYQQTPGQAPRTLIYSTDSRHSGVPDRFSGSILGNKAALTITGAQADDESDYYCGLYMYSGSKNYVFGGGTKLTVL', '157 RU');
